B1: Tudor domain-containing protein 3, residues 554 to 611; numbered along this chain, Q9H7E2 (parent)
chain: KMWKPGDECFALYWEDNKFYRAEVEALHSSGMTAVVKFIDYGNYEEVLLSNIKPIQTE

- Variants of: B1
- Experimental Protocol: abundance fitness (aPCA) (normalised: wild type 0, dead -1); higher = more abundant; growth selection in yeast, the domain comes from the species named
- Experimental Setup: Homo sapiens
Label 1 for high-side abundance fitness (at or above -0.3) and -1 for low-side abundance fitness (below it).

| Mutation Annotation | Assigned Class |
| --- | --- |
| K53G | -1 |
| S30I | -1 |
| A26L | 1 |
| P5Q | 1 |
| F10H | 1 |
| A34D | -1 |
| C9P | -1 |
| V36L | -1 |
| E45G | 1 |
| H28N | 1 |
| E45W | -1 |
| Q56C | 1 |
| Q56V | 1 |
| P5C | 1 |
| K37H | -1 |
| R21I | -1 |
| K53N | -1 |
| K18R | 1 |
| N17H | 1 |
| L27H | -1 |
| G6L | -1 |
| E45T | -1 |
| G6C | -1 |
| S50N | 1 |
| K1D | 1 |
| P54Y | -1 |
| K4W | -1 |
| S50E | 1 |
| G6M | -1 |
| D16M | -1 |
| K18A | 1 |
| N17I | -1 |
| L49S | -1 |
| E8P | 1 |
| K1A | 1 |
| A34W | -1 |
| D7L | -1 |
| K1I | 1 |
| F10M | 1 |
| L12C | 1 |
| N43T | 1 |
| W14V | 1 |
| F10T | -1 |
| L48G | -1 |
| V35R | 1 |
